Molecular target: T1, RacA DBD (Bacillus subtilis, UniProt P45870 1-70)
T1 sequence: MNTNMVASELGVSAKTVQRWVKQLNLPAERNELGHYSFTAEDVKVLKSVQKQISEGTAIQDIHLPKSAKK
Test: fluorescence polarization
observed_property: Kd (µM)
Answers are plain numbers, in µM.

// 14mer ram centromere site (FP) (dsDNA) DNA 1: TGACGCCGGCGTCA DNA 2: TGACGCCGGCGTCA : Kd value = 9.2
